Tested on: Plasmodium berghei
Protocol Notes: Screen against P. berghei liver stage (PbLuc), transformed with Luciferase, at 2uM
Assay type: functional, HepG2
Test Parameters: tested at 2 uM
Out of some 68,000 compounds screened, about 2,700 (4%) showed an effect of 50% or more. The sample holds strong results, similar compounds and a random draw of the others, so the mix is not that of the screen.
Recorded INHIBITION, one value per entry.
Report the value in % with no unit label.

Guide cases for INHIBITION, answers given:
• O=C(NC1CC1)N1CCN(c2cnccn2)CC1 = 11.24
• Cc1cc(C(=O)N2CCCC(n3ccnc3C)C2)c(C)s1 (configuration not stated) = -0.55
• CCc1nnc(CSc2ccccn2)o1 = -9.88
• Cc1nn(C)cc1C(=O)N1CCC(CSc2ccccc2)C1 (configuration not stated) = 3.22
• Cc1nccc(NCc2cncc3c2CCN(CC2CCOC2)C3)n1 (configuration not stated) = 22.23
• CCNC(=O)NC(C)(C)C(=O)NCCc1csc2ccccc12 = 32.03
• Cc1nc(C)c(C(=O)N2CCCC(n3ccnc3C)C2)s1 (configuration not stated) = 45.49
• O=C(NCc1cncc2c1CCN(CC1CCOC1)C2)c1ccco1 (configuration not stated) = 7.33

Incoming: Would you mind telling me what INHIBITION value was observed for CS(=O)(=O)NCc1cncc2c1CCN(CC1CCOC1)C2 (configuration not stated) ?
Outgoing: 52.05

Source of measurements: ChEMBL document CHEMBL4513216
